- test_protocol: NCI Yeast Anticancer Drug Screen. Data for the rad14 strain (AID 159)
- assay_conditions: S. cerevisiae rad14 strain growth inhibition; at 100.0 µM
The panel holds about 79,000 compounds, 15% with a hit somewhere; the sample as a whole holds those more often. The source made the active and inactive calls. Rule as the data show it: active = growth inhibition above about 70%; inactive = the rest.
The reply should name one outcome from True = active, False = inactive

Which outcome did this test record for the compound COc1cc(NCc2ccc3nc(N)nc(N)c3c2C)cc(OC)c1OC ?
False

# iterate: COC(=O)c1ccc2c(c1)Cc1ccccc1-2
False

# iterate: Cn1c2nc3ccccc3c-2nc2ccccc21
True

# iterate: O=Nc1ccc(Nc2ccccc2)cc1
True

# iterate: O=C(O)c1[nH]c(=O)c2ccccc2c1Nc1ccccc1
False

# iterate: CC(=O)O[C@H]1C(=O)[C@@]2(C)[C@H]([C@H](OC(=O)c3ccccc3)[C@]3(O)C[C@H](OC(=O)[C@H](O)[C@@H](NC(=O)c4ccccc4)c4ccccc4)C(C)=C1C3(C)C)[C@]1(OC(C)=O)CO[C@@H]1C[C@@H]2O
False

# iterate: CC(=O)C1=C(O)C2(C)c3c(O)c(C)c(O)c(C(C)=O)c3OC2(Sc2ccccc2)CC1=O (centres undefined)
True

# iterate: OB(O)c1ccccc1C#Cc1ccccc1B(O)O
True

# iterate: COc1cc(CNc2ccc(C(C)C)cc2)cc(OC)c1OC
True

Reference source for all entries: PubChem BioAssay (NCI)
